studyTarget: T1, Formyl-Peptide Receptor 1 (UniProt P21462 1-350, limits assumed)
T1 sequence (looked up): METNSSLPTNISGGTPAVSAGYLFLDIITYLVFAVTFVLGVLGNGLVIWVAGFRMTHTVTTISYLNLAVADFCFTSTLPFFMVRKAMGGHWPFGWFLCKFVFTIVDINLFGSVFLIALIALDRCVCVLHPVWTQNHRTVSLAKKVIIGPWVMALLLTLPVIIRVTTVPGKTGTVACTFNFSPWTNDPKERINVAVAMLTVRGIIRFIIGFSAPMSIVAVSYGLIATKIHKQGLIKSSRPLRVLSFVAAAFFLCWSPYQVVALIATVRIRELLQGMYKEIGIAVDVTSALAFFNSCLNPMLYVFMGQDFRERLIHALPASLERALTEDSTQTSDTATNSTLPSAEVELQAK
experiment: cell-based or functional assay
Bridges are numbered along the chain shown (N, C = ends). [ ]: non-standard residue; d: D form.
quantityKind: β-Arrestin IC50 (nM)

{"binder": "cyclo(YHACWG[dP]WTICYQK[dA]P) (disulfide 4-11; SMILES CC[C@H](C)[C@@H]1NC(=O)[C@H]([C@@H](C)O)NC(=O)[C@H](Cc2c[nH]c3ccccc23)NC(=O)[C@H]2CCCN2C(=O)CNC(=O)[C@H](Cc2c[nH]c3ccccc23)NC(=O)[C@@H]2CSSC[C@H](NC1=O)C(=O)N[C@@H](Cc1ccc(O)cc1)C(=O)N[C@@H](CCC(N)=O)C(=O)N[C@@H](CCCCN)C(=O)N[C@H](C)C(=O)N1CCC[C@H]1C(=O)N[C@@H](Cc1ccc(O)cc1)C(=O)N[C@@H](Cc1c[nH]cn1)C(=O)N[C@@H](C)C(=O)N2) [cyclo(-Tyr-His-Ala-Cys-Trp-Gly-^DPro-Trp-Thr-Ile-Cys-Tyr-Gln-Lys-^DAla-Pro-)]", "unitAbbrev": "nM", "numericReadout": 133}
{"binder": "cyclo(HHKCHG[dP]WTICYEK[dP]P) (disulfide 4-11; SMILES CC[C@H](C)[C@@H]1NC(=O)[C@H]([C@@H](C)O)NC(=O)[C@H](Cc2c[nH]c3ccccc23)NC(=O)[C@H]2CCCN2C(=O)CNC(=O)[C@H](Cc2c[nH]cn2)NC(=O)[C@@H]2CSSC[C@H](NC1=O)C(=O)N[C@@H](Cc1ccc(O)cc1)C(=O)N[C@@H](CCC(=O)O)C(=O)N[C@@H](CCCCN)C(=O)N1CCC[C@@H]1C(=O)N1CCC[C@H]1C(=O)N[C@@H](Cc1c[nH]cn1)C(=O)N[C@@H](Cc1c[nH]cn1)C(=O)N[C@@H](CCCCN)C(=O)N2) [cyclo(-His-His-Lys-Cys-His-Gly-^DPro-Trp-Thr-Ile-Cys-Tyr-Glu-Lys-^DPro-Pro-)]", "unitAbbrev": "nM", "numericReadout": 239}
{"binder": "cyclo(YHACFG[dP]WTICYQK[dP]P) (disulfide 4-11; SMILES CC[C@H](C)[C@@H]1NC(=O)[C@H]([C@@H](C)O)NC(=O)[C@H](Cc2c[nH]c3ccccc23)NC(=O)[C@H]2CCCN2C(=O)CNC(=O)[C@H](Cc2ccccc2)NC(=O)[C@@H]2CSSC[C@H](NC1=O)C(=O)N[C@@H](Cc1ccc(O)cc1)C(=O)N[C@@H](CCC(N)=O)C(=O)N[C@@H](CCCCN)C(=O)N1CCC[C@@H]1C(=O)N1CCC[C@H]1C(=O)N[C@@H](Cc1ccc(O)cc1)C(=O)N[C@@H](Cc1c[nH]cn1)C(=O)N[C@@H](C)C(=O)N2) [cyclo(-Tyr-His-Ala-Cys-Phe-Gly-^DPro-Trp-Thr-Ile-Cys-Tyr-Gln-Lys-^DPro-Pro-)]", "unitAbbrev": "nM", "numericReadout": 166}
{"binder": "cyclo(YHICHG[dP]WTICYQK[dP]P) (disulfide 4-11; SMILES CC[C@H](C)[C@@H]1NC(=O)[C@H](Cc2c[nH]cn2)NC(=O)[C@H](Cc2ccc(O)cc2)NC(=O)[C@@H]2CCCN2C(=O)[C@H]2CCCN2C(=O)[C@H](CCCCN)NC(=O)[C@H](CCC(N)=O)NC(=O)[C@H](Cc2ccc(O)cc2)NC(=O)[C@@H]2CSSC[C@H](NC1=O)C(=O)N[C@@H](Cc1c[nH]cn1)C(=O)NCC(=O)N1CCC[C@@H]1C(=O)N[C@@H](Cc1c[nH]c3ccccc13)C(=O)N[C@@H]([C@@H](C)O)C(=O)N[C@@H]([C@@H](C)CC)C(=O)N2) [cyclo(-Tyr-His-Ile-Cys-His-Gly-^DPro-Trp-Thr-Ile-Cys-Tyr-Gln-Lys-^DPro-Pro-)]", "unitAbbrev": "nM", "numericReadout": 35}
